I'd be grateful if you could share measured % efficacy for these entries.
test system: Phytophthora infestans; type: in vivo; conditions: tomato plants, preventive spray, 500 ppm of active ingredient, evaluated 5 days after inoculation

Some compounds with known % efficacy results, for comparison:
compound="CCCCCOC(=O)Nc1cccc(CON=C(c2ccncc2)c2noc(=O)n2C)n1 [Example 44]" measure="% efficacy" result=98%
compound="C#CCCOC(=O)Nc1cccc(CON=C(c2ccccn2)c2noc(=O)n2C)n1 [Example 7]" measure="% efficacy" result=85%
compound="CCCCOC(=O)Nc1cccc(CON=C(c2ccncc2)c2noc(=O)n2C)n1 [Example 82]" measure="% efficacy" result=100%
compound="Cn1c(C(=NOCc2csc(NC(=O)COc3ccccc3)n2)c2ccsc2)noc1=O [Example 67]" measure="% efficacy" result=98%
compound="C#CCCOC(=O)Nc1cccc(CON=C(c2cccnc2)c2nc(=O)on2C)n1 [Example 56]" measure="% efficacy" result=89%
compound="CCCCCC(=O)Nc1nc(CON=C(c2ccsc2)c2noc(=O)n2C)cs1 [Example 73]" measure="% efficacy" result=100%
compound="CCCCCOC(=O)Nc1nc(CON=C(c2cccs2)c2noc(=O)n2C)cs1 [Example 74]" measure="% efficacy" result=85%
compound="C#CCCOC(=O)Nc1cccc(CON=C(c2ccncc2)c2noc(=O)n2C)n1 [Example 45]" measure="% efficacy" result=100%
compound="CCCCC(=O)Nc1cccc(CON=C(c2cccnc2)c2noc(=O)n2C)n1 [Example 59]" measure="% efficacy" result=78%
compound="Cn1c(C(=NOCc2csc(N)n2)c2ccsc2)noc1=O [Example 23]" measure="% efficacy" result=98%

// moving on: another record for % efficacy
% efficacy in this record for Cn1c(C(=NOCc2csc(NC(=O)OC(C)(C)C)n2)c2ccsc2)noc1=O [Example 16] : 100%

###

tested on: Phytophthora infestans; assay type: in vivo; settings: tomato plants, preventive spray, 500 ppm of active ingredient, evaluated 5 days after inoculation
// label = Yes if % efficacy is not less than 90%, otherwise No

## Task # bool: % efficacy of CCCCOC(=O)Nc1cccc(CON=C(c2ccccn2)c2noc(=O)n2C)n1 >= 90%
## Result Yes

## Task Does the molecule Cn1c(C(=NOCc2cccc(NC(=O)OC(C)(C)C)n2)c2cccnc2)noc1=O have recorded % efficacy that is 90% or more?
## Result No

## Task Given CCCCCOC(=O)Nc1cccc(CON=C(c2cccnc2)c2noc(=O)n2C)n1 , state whether its % efficacy is at least 90%.
## Result Yes

## Task Form field: % efficacy at least 90%? Entry: CCCCOC(=O)Nc1cccc(CON=C(c2ncccn2)c2noc(=O)n2C)n1
## Result No

## Task API: above_or_equal(metric=% efficacy, cutoff=90%) for item Cn1oc(=O)nc1C(=NOCc1cccc(NC(=O)OC(C)(C)C)n1)c1ccncc1
## Result No

## Task Threshold query (% efficacy >= 90%) on Cn1oc(=O)nc1/C(=N\OCc1cccc(NC(=O)OC(C)(C)C)n1)c1ccccn1
## Result Yes

###

conditions: pH 2.7
Marks after values point to notes of the source that are not given here.
measure: LogP

molecule="Cn1c(C(=NOCc2csc(NC(=O)COc3ccccc3)n2)c2ccsc2)noc1=O [Example 67]" measure=LogP result=3.22^[a]

Batch request: LogP per item, same order as input.
1. CCCCC(=O)Nc1cccc(CON=C(c2ncccn2)c2noc(=O)n2C)n1 [Example 61]
2. CCCCCC(=O)Nc1cccc(CON=C(c2ncccn2)c2nc(=O)on2C)n1 [Example 48]
3. N#CC(=NOCc1csc(NC(=O)c2ccc(F)cc2)n1)c1ccsc1 [Example IV-10]
4. Cn1c(C(=NOCc2csc(N(COCC[Si](C)(C)C)C(=O)OC(C)(C)C)n2)c2cccs2)noc1=O [Example 70]
5. CC(C)(C)OC(=O)Nc1cccc(CON=C(c2ncccn2)c2noc(=O)[nH]2)n1 [Example 26]
6. Cn1c(C(=NOCc2csc(NC(=O)c3ccc(F)cc3)n2)c2cccs2)noc1=O [Example 85]
7. C#CCCOC(=O)Nc1cccc(CON=C(c2cccnc2)c2noc(=O)n2C)n1 [Example 51]

## Result
2.23^[a]
2.18^[a]
3.51^[a]
5.84^[a]
2.27^[a]
3.20^[a]
2.32^[a]

Need LogP for each of these molecules.
1. Cn1oc(=O)nc1C(=NOCc1cccc(N)n1)c1cccnc1 [Example 34]
2. Cc1nc(CON=C(C#N)c2ccsc2)cs1 [Example IV-09]
3. CCCCOC(=O)Nc1cccc(CON=C(c2cccnc2)c2noc(=O)n2C)n1 [Example 50]
4. CC(C)(C)OC(=O)Nc1cccc(CON=C(C(N)=NO)c2ccccn2)n1 [Example V-01]
5. Cn1c(C(=NOCc2cccc(NC(=O)OC(C)(C)C)n2)c2ccccn2)noc1=O [Example 13]
6. CCn1oc(=O)nc1C(=NOCc1cccc(NC(=O)OC(C)(C)C)n1)c1ccccn1 [Example 8]

## Result
1. 1.19^[a]
2. 1.45^[a]
3. 2.98^[a]
4. 1.76^[a]
5. 3.17^[a]
6. 2.84^[a]

Value sought for every listed molecule: LogP.
1. Cn1oc(=O)nc1C(=NOCc1cccc(NC(=O)OC(C)(C)C)n1)c1cccnc1 [Example 31]
2. Cn1c(C(=NOCc2csc(NC(=O)OC(C)(C)C)n2)c2cccs2)noc1=O [Example 42]
3. CC(C)(C)OC(=O)Nc1nc(CON=C(c2noc(=O)[nH]2)c2cccs2)cs1 [Example 24]
4. Cn1oc(=O)nc1C(=NOCc1cccc(N)n1)c1ccncc1 [Example 39]

## Result
1. 2.28 + 2.37^[a]
2. 3.35^[a]
3. 3.26^[a]
4. 1.20^[c]

Give one value of LogP per listed molecule.
1. CC(C)(C)OC(=O)Nc1cccc(CON=C(c2ccncc2)c2noc(=O)[nH]2)n1 [Example 36]
2. CCCCCC(=O)Nc1cccc(CON=C(c2cccnc2)c2nc(=O)on2C)n1 [Example 63]
3. CCCCCOC(=O)Nc1cccc(CON=C(c2ccncc2)c2nc(=O)on2C)n1 [Example 78]

## Result
1. 2.37^[a]
2. 2.39^[a]
3. 2.68^[a]

###

details: pH 2.7
Marks after values point to notes of the source that are not given here.
measure: LogP

For orientation, consider the following solved cases.
molecule="CCCCC(=O)Nc1cccc(CON=C(c2ccccn2)c2nc(=O)on2CC)n1 [Example 6]" result=2.49^[a]
molecule="Cn1c(C(=NOCc2cccc(NC(=O)OC(C)(C)C)n2)c2ncccn2)noc1=O (single isomer, unassigned) [Example 28]" result=2.56^[a][c]
molecule="Cn1c(C(=NOCc2cccc(N)n2)c2ccncc2)noc1=O [Example 40]" result=0.41^[a]

Dear colleague, could you send me LogP for each of the items below? Thanks.
1. CCCCOC(=O)Nc1cccc(CON=C(c2ccccn2)c2nc(=O)on2CC)n1 [Example 5]
2. CC(Oc1ccccc1)C(=O)Nc1nc(CON=C(c2cccs2)c2noc(=O)n2C)cs1 (stereo not shown) [Example 80]
3. CCOC(=O)c1nc(CON=C(C#N)c2ccsc2)cs1 [Example IV-08]
4. CCCCCOC(=O)Nc1nc(CON=C(c2cccs2)c2noc(=O)n2C)cs1 [Example 74]

## Result
1: 2.96^[a]; 2: 3.42^[a]; 3: 3.15^[a]; 4: 3.79^[a]

###

details: pH 2.7
Marks after values point to notes of the source that are not given here.
measure: LogP

Examples with answers:
compound="CCCCCOC(=O)Nc1cccc(CON=C(c2ncccn2)c2noc(=O)n2C)n1 [Example 52]" measure=LogP result=3.06^[a]
compound="CC(Oc1ccccc1)C(=O)Nc1nc(CON=C(c2ccsc2)c2noc(=O)n2C)cs1 (racemic) [Example 43]" measure=LogP result=3.37^[a]
compound="Cn1c(C(=NOCc2csc(N)n2)c2cccs2)noc1=O [Example 81]" measure=LogP result=1.38^[a]

Each compound below has a reported value. Please supply its LogP.
1. Cn1c(C(=NOCc2csc(NC(=O)c3ccc(F)cc3)n2)c2ccsc2)noc1=O [Example 64]
2. CC(C)(C)OC(=O)N(COCC[Si](C)(C)C)c1nc(CON=C(c2noc(=O)[nH]2)c2cccs2)cs1 [Example 72]
3. CCCCCOC(=O)Nc1cccc(CON=C(c2ccccn2)c2nc(=O)on2C)n1 [Example 15]
4. CCCCOC(=O)Nc1cccc(CON=C(c2ccccn2)c2nc(=O)on2C)n1 [Example 21]
5. CC(C)(C)OC(=O)N(COCC[Si](C)(C)C)c1nc(CON=C(C(N)=NO)c2cccs2)cs1 [Example V-04]

## Result
1: 3.26^[a]; 2: 5.45^[a]; 3: 3.09^[a]; 4: 2.70^[a]; 5: 4.60^[a]

###

experiment: Measurement of log P values by HPLC on reversed phase columns (EEC directive 79/831 Annex V.A8); conditions: pH 2.7
What chromatographic logP was measured for each of the following?
Give bare numbers.

Please review the entries below; each comes with its answer.
line_notation=CN(O)C(=N)/C(=N\OCc1cccc(NC(=O)OC(C)(C)C)n1)c1ccccn1 numeric_value=1.54
line_notation=CC(C)(C)OC(=O)Nc1cccc(CON=C(c2cccnc2)c2noc(=O)[nH]2)n1 numeric_value=2.59
line_notation=Cn1oc(=O)nc1/C(=N\OCc1cccc(NC(=O)OC(C)(C)C)n1)c1ccccn1 numeric_value=2.68
line_notation=C#CCCOC(=O)Nc1cccc(CO/N=C(/c2ccccn2)c2nc(=O)on2C)n1 numeric_value=2.1

Could you report chromatographic logP for every entry in the following list?
1. CC(C)(C)OC(=O)Nc1cccc(CO/N=C(\C#N)c2ccccn2)n1
2. Cn1oc(=O)nc1/C(=N\OCc1cccc(N)n1)c1ccccn1
3. CC(C)(C)OC(=O)Nc1cccc(CON=C(C(N)=NO)c2cccnc2)n1
4. Cn1c(C(=NOCc2cccc(NC(=O)OC(C)(C)C)n2)c2cccnc2)noc1=O
5. CC(C)(C)OC(=O)Nc1cccc(CON=C(C#N)c2cccnc2)n1

## Result
[3.5, 0.41, 1.81, 2.75, 3.19]

Origin of the recorded values: patent US20160002217A1
